Here, each record is paired with measured pIC50 data.
Target: UniProtKB P01375
Test: TNFα FP Competitive Binding Assay
Settings: FP binding assay; 20 nM TNFα trimer, 1 nM OregonGreen488 probe; read-out: TNF IC50
pIC50: −log10 of the molar value.

{"lineNotation": "Cn1c(=O)c2ccc(-c3cnc(N4CC(CO)C4)nc3)cc2n1Cc1ccccc1OC(F)F", "pIC50": "5.00 to 6.00"}
{"lineNotation": "Cc1ccc(OC(F)F)c(Cn2c3nc(-c4cnc(C(C)(C)O)nc4)c(F)cc3c(=O)n2C)c1", "pIC50": "5.00 to 6.00"}
{"lineNotation": "CC(=O)N1CCN(c2ncc(-c3ccc4c(=O)n(C)n(Cc5cc(C)ccc5OC(F)F)c4c3)cn2)[C@@H](C)C1", "pIC50": "> 6.00"}
{"lineNotation": "[2H]C([2H])([2H])n1c(=O)c2ccc(-c3cnc(N4CCN(C(=O)CO)[C@H](C)C4)nc3)cc2n1Cc1cc(C)ccc1OC(F)F", "pIC50": "> 6.00"}
{"lineNotation": "[2H]C([2H])([2H])n1c(=O)c2ccc(-c3cnc(N4CCN(C(C)=O)[C@H](C)C4)nc3)cc2n1Cc1cc(C)ccc1OC(F)F", "pIC50": "> 6.00"}

====

Target: TNFα trimer (Homo sapiens, UniProt P01375)
Sequence (P01375 77-233 limits assumed): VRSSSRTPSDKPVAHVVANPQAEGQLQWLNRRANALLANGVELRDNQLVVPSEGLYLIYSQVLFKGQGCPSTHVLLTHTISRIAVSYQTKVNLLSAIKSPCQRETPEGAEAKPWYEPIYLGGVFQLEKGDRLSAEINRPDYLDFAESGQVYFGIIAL
Experiment: TNFα FP Competitive Binding Assay
Conditions: FP binding assay; 20 nM TNFα trimer, 1 nM OregonGreen488 probe; read-out: TNF IC50

{"compound": "C[C@@H]1C[C@H](O)CCN1c1ncc(-c2ccc3c(=O)n(C)n(Cc4ccccc4OC(F)F)c3c2)cn1", "IC50": "< 1000 nM"}
{"compound": "COCc1cccc(OC(F)F)c1Cn1c2cc(-c3cnc(C(C)(C)O)nc3)ccc2c(=O)n1C", "IC50": "1000 to 10000 nM"}
{"compound": "CC(=O)N1CCN(c2ncc(-c3ccc4c(=O)n(C)n(Cc5cn(CCO)cc5C(F)(F)F)c4c3)cn2)C[C@H]1C", "IC50": "< 1000 nM"}
{"compound": "Cn1c(=O)c2ccc(-c3cnc(N4CCN5C(=O)NC[C@@H]5C4)nc3)cc2n1Cc1cc(CC#N)ccc1OC(F)F", "IC50": "< 1000 nM"}
{"compound": "CN1CC[C@H](Nc2ncc(-c3ccc4c(=O)n(C)n(Cc5cc(CO)ccc5OC(F)F)c4c3)cn2)CC1=O (single isomer, unassigned)", "IC50": "1000 to 10000 nM"}

====

Target: TNFα trimer (Homo sapiens, UniProt P01375)
Assay: TNFα FP Competitive Binding Assay
Conditions: FP binding assay; 20 nM TNFα trimer, 1 nM OregonGreen488 probe; read-out: TNF IC50
Here, each record is paired with measured IC50 data.

{"compound": "Cn1c(=O)c2ccc(-c3cnc(N4CCOCC4)nc3)cc2n1Cc1c(F)cccc1OC(F)F [Example 1]", "IC50": "< 1000 nM"}
{"compound": "Cc1c(-c2cnc(N3CCN(C(=O)CO)[C@H](C)C3)nc2)ccc2c(=O)n(C)n(Cc3ccccc3Cl)c12 [Example 24.13]", "IC50": "< 1000 nM"}
{"compound": "Cc1ccc(Cl)c(Cn2c3cc(-c4cnc(N5CCN6C(=O)NC[C@H]6C5)nc4)ccc3c(=O)n2C)c1 [Example 103]", "IC50": "< 1000 nM"}

====

Target: TNFα trimer (Homo sapiens, UniProt P01375)
Assay: TNFα FP Competitive Binding Assay
Conditions: FP binding assay; 20 nM TNFα trimer, 1 nM OregonGreen488 probe; read-out: TNF IC50
pIC50: −log10 of the molar value.
Here, each record is paired with measured pIC50 data.

{"molecule": "Cc1ccc(OC(F)F)c(Cn2c3cc(-c4cnc(N5CCN(C(=O)CO)C[C@H]5C)nc4)c(F)cc3c(=O)n2C)c1 [Example 17.3]", "targetSystem": "TNFα trimer (Homo sapiens, UniProt P01375)", "pIC50": "> 6.00"}
{"molecule": "Cn1c(=O)c2ccc(-c3cnc(C(C)(C)O)nc3)cc2n1Cc1cc(Cc2ccn[nH]2)ccc1OC(F)F [Example #133]", "targetSystem": "TNFα trimer (Homo sapiens, UniProt P01375)", "pIC50": "> 6.00"}
{"molecule": "CC(=O)N1CCN(c2ncc(-c3ccc4c(=O)n(Cc5ccncc5)n(Cc5ccccc5Cl)c4c3)cn2)C[C@H]1C [Example 27.7]", "targetSystem": "TNFα trimer (Homo sapiens, UniProt P01375)", "pIC50": "5.00 to 6.00"}
{"molecule": "Cc1ccc(C(F)(F)F)c(Cn2c3cc(-c4cnc(N5CCN6C(=O)OC[C@H]6C5)nc4)ccc3c(=O)n2C)n1 [Example 19.4]", "targetSystem": "TNFα trimer (Homo sapiens, UniProt P01375)", "pIC50": "> 6.00"}
{"molecule": "Cn1c(=O)c2ccc(-c3cnc(N4CCOCC4)nc3)cc2n1Cc1ccc(F)cc1 [Example 1.11]", "targetSystem": "TNFα trimer (Homo sapiens, UniProt P01375)", "pIC50": "< 5.00"}
{"molecule": "C[C@@H]1CN(c2ncc(-c3ccc4c(=O)n(C)n(Cc5ccccc5OC(F)F)c4c3F)cn2)CCN1C(=O)CO [Example 24.6]", "targetSystem": "TNFα trimer (Homo sapiens, UniProt P01375)", "pIC50": "> 6.00"}
{"molecule": "Cn1c(=O)c2ccc(-c3cnc(N4CCOCC4)nc3)nc2n1Cc1ccccc1OC(F)F [Example 15]", "targetSystem": "TNFα trimer (Homo sapiens, UniProt P01375)", "pIC50": "5.00 to 6.00"}
{"molecule": "Cn1c(=O)c2ccc(-c3cnc(N4CCOCC4)nc3)cc2n1Cc1cnccc1Cl [Example 1.17]", "targetSystem": "TNFα trimer (Homo sapiens, UniProt P01375)", "pIC50": "< 5.00"}
{"molecule": "CN1CCC(Nc2ccc(Cl)c(Cn3c4cc(-c5cnc(C(C)(C)O)nc5)ccc4c(=O)n3C)c2)C1=O (stereo not shown) [Example 109]", "targetSystem": "TNFα trimer (Homo sapiens, UniProt P01375)", "pIC50": "5.00 to 6.00"}
{"molecule": "Cn1c(=O)c2ccc(-c3cnc(N[C@H]4CCNC(=O)C4)nc3)cc2n1Cc1cc(CO)ccc1OC(F)F (single isomer, unassigned) [Example 25]", "targetSystem": "TNFα trimer (Homo sapiens, UniProt P01375)", "pIC50": "> 6.00"}
{"molecule": "C[C@@H]1CN(c2ncc(-c3ccc4c(=O)n(C)n(Cc5ccccc5OC(F)F)c4c3)cn2)CCN1C(=O)[C@H](O)CC(=O)O [Example 50]", "targetSystem": "TNFα trimer (Homo sapiens, UniProt P01375)", "pIC50": "> 6.00"}
{"molecule": "Cn1c(=O)c2ccc(-c3cnc(N4CCOCC4)nc3)cc2n1Cc1ccccc1C#N [Example 1.12]", "targetSystem": "TNFα trimer (Homo sapiens, UniProt P01375)", "pIC50": "5.00 to 6.00"}
{"molecule": "C[C@@H]1CN(c2ncc(-c3nc4c(cc3F)c(=O)n(C)n4Cc3ccccc3OC(F)F)cn2)CCN1C(=O)CO [Example 24.11]", "targetSystem": "TNFα trimer (Homo sapiens, UniProt P01375)", "pIC50": "> 6.00"}
{"molecule": "CC(=O)N1CCN(c2ncc(-c3ccc4c(=O)n(C)n(Cc5nc(C)ccc5C(F)(F)F)c4c3)cn2)[C@H](C)C1 [Example 74]", "targetSystem": "TNFα trimer (Homo sapiens, UniProt P01375)", "pIC50": "> 6.00"}
{"molecule": "Cc1ccc(OC(F)F)c(Cn2c3cc(-c4cnc(N5CCN(C(=O)COP(=O)(O)O)[C@H](C)C5)nc4)ccc3c(=O)n2C)c1 [Example 69]", "targetSystem": "TNFα trimer (Homo sapiens, UniProt P01375)", "pIC50": "> 6.00"}
{"molecule": "Cc1ccc(C(F)(F)F)c(Cn2c3cc(-c4cnc(N5CCN6C(=O)NC[C@H]6C5)nc4)ccc3c(=O)n2C)c1 [Example 29.3]", "targetSystem": "TNFα trimer (Homo sapiens, UniProt P01375)", "pIC50": "> 6.00"}

====

Here, each record is paired with measured IC50 data.
Target: TNFα trimer (Homo sapiens)
Test: TNFα FP Competitive Binding Assay
Details: FP binding assay; 20 nM TNFα trimer, 1 nM OregonGreen488 probe; read-out: TNF IC50

{"compound": "Cc1cccc(C(C)n2c3cc(-c4cnc(N5CCN(C(=O)CO)[C@H](C)C5)nc4)ccc3c(=O)n2C)c1 (stereo partly drawn)", "IC50": "< 1000 nM"}
{"compound": "Cc1ccc(OC(F)F)c(Cn2c3cc(-c4cnc(N5CCN(C(=O)C(O)CN)[C@H](C)C5)nc4)ccc3c(=O)n2C)c1 (stereo partly drawn)", "IC50": "< 1000 nM"}
{"compound": "Cc1ccc(OC(F)F)c(Cn2c3cc(-c4cnc(C(C)(C)CO)nc4)ccc3c(=O)n2C)c1", "IC50": "1000 to 10000 nM"}
{"compound": "CC(=O)N1CCN(c2ncc(-c3ccc4c(=O)n(C)n(Cc5cc(C)ccc5OC(F)F)c4c3)cn2)C[C@@H]1CO", "IC50": "< 1000 nM"}
{"compound": "Cn1c(=O)c2ccc(-c3cnc(C(C)(C)O)nc3)cc2n1Cc1cn(Cc2ccnnc2)cc1C(F)(F)F", "IC50": "1000 to 10000 nM"}
{"compound": "Cn1c(=O)c2ccc(-c3cnn(C4CCOCC4)c3)cc2n1Cc1ccccc1OC(F)F", "IC50": "> 10000 nM"}
{"compound": "CC(C)[C@H](N)C(=O)OCc1ccc(OC(F)F)c(Cn2c3cc(-c4cnc(N5CCN6C(=O)OC[C@@H]6C5)nc4)ccc3c(=O)n2C)c1", "IC50": "1000 to 10000 nM"}
{"compound": "Cc1ccc(OC(F)F)c(Cn2c3cc(-c4cnc(N5CCN6C(=O)NC[C@H]6C5)nc4)ccc3c(=O)n2C)n1", "IC50": "1000 to 10000 nM"}
{"compound": "CC(=O)N1CCN(c2ncc(-c3ccc4c(=O)n(C)n(Cc5cc(C)ccc5OC(F)F)c4c3)cn2)C[C@H]1CO", "IC50": "< 1000 nM"}
{"compound": "CC(=O)N1CCN(c2ncc(-c3ccc4c(=O)n(C)n(Cc5cc(CN6CCN(C)C6=O)ccc5OC(F)F)c4c3)cn2)C[C@H]1C", "IC50": "1000 to 10000 nM"}
{"compound": "Cc1ccc(OC(F)F)c(Cn2c3cc(-c4cnc(N5CCN6C(=O)OC[C@H]6C5)nc4)ccc3c(=O)n2C)c1", "IC50": "< 1000 nM"}
{"compound": "CC(=O)N1CCN(c2ncc(-c3ccc4c(=O)n(C)n(Cc5cc(CC#N)ccc5OC(F)F)c4c3)cn2)C[C@H]1C", "IC50": "< 1000 nM"}
